# ASSAYED SYSTEM: HRgpA-6H (Porphyromonas gingivalis) (UniProt P28784)
# MEASUREMENT DESCRIPTION: ELISA, coated HRgpA-6H
Provide the reported Ratio OD(Variant)/OD(WT) of each item.
Form: value (number only, do not type unit).

Exam item: Report Ratio OD(Variant)/OD(WT) for KB001 mouse Fab VL S57N (Fab, V domains shown) VH: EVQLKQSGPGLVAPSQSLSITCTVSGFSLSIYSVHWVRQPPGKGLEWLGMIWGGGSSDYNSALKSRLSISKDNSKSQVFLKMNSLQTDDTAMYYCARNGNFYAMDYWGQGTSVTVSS VL: QIVLTQSPAIMSASLGERVTMTCTASSSVSSSFLHWYQQKPGSSPQLWIYSTSNLANGVPARFSGSGSGTSYSLTISSMEAEDAATYYCHQYHHSPYIYTFGGGTKLEIK please.
Marked response: 1.05

Exam item: Report Ratio OD(Variant)/OD(WT) for KB001 mouse Fab VH S61Y (Fab, V domains shown) VH: EVQLKQSGPGLVAPSQSLSITCTVSGFSLSIYSVHWVRQPPGKGLEWLGMIWGGGSSDYNYALKSRLSISKDNSKSQVFLKMNSLQTDDTAMYYCARNGNFYAMDYWGQGTSVTVSS VL: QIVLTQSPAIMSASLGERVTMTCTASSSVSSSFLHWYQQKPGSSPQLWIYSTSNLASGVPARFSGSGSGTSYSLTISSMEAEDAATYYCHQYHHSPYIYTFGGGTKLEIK please.
Marked response: 0.857

Exam item: Report Ratio OD(Variant)/OD(WT) for KB001 mouse Fab VL S57T (Fab, V domains shown) VH: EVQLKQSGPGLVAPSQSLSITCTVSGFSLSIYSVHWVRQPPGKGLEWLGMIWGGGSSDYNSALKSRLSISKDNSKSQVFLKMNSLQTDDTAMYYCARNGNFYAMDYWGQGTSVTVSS VL: QIVLTQSPAIMSASLGERVTMTCTASSSVSSSFLHWYQQKPGSSPQLWIYSTSNLATGVPARFSGSGSGTSYSLTISSMEAEDAATYYCHQYHHSPYIYTFGGGTKLEIK please.
Marked response: 1.03
